For each of the molecules below, state its Efficacy (GABA) %.
- target.of.assay: h-GABA-A α2β2γ1 (Homo sapiens (Human), UniProt P47869+Q8N1C3)
- test.description: Two-electrode voltage clamp electrophysiology in Xenopus oocytes expressing GABAA receptors
- Format: cell-based
- assay.context: % modulation of GABA EC20 = 100*(Fold increase−1), compound at about 30-fold its Ki α2β2γ1
Number first, unit second: that is the form wanted.

Problem: // returns reported Efficacy (GABA) % for input Cc1nnc2n1-c1sc3c(c1C(c1c(F)cccc1F)=NC2)CCCCC3 [Example 1]
Result: 64%

Problem: Consider next the molecule Cc1nnc2n1-c1sc3c(c1C(c1c(F)cccc1F)=N[C@H]2C)CC[C@@H](F)CC3 (single isomer, unassigned) [Example 15] in the same way.
Result: 144%

Problem: Consider next the molecule C[C@@H]1N=C(c2c(F)cccc2F)c2c(sc3c2COCCC3)-n2cc(C(=O)NCC3(O)CC3)nc21 [Example 68] in the same way.
Result: 159%

Problem: Consider next the molecule Cc1nnc2n1-c1sc3c(c1C(c1c(F)cccc1F)=N[C@H]2C)CCC[C@H](F)C3 (single isomer, unassigned) [Example 17] in the same way.
Result: 135%

Problem: Consider next the molecule C[C@@H]1N=C(c2c(F)cccc2F)c2c(sc3c2COCCC3)-n2nc(C(=O)N[C@H]3C[C@@H](O)C3)nc21 [Example 64] in the same way.
Result: 164%

Problem: Consider next the molecule CCNC(=O)c1nc2n(n1)-c1sc3c(c1C(c1c(F)cccc1F)=N[C@H]2C)COCCO3 [Example 37] in the same way.
Result: 86%

Problem: Consider next the molecule Cc1nnc2n1-c1sc3c(c1C(c1c(F)cccc1F)=N[C@H]2C)CCCC(F)(F)C3 [Example 8] in the same way.
Result: 203%

###

For each of the compounds below, state its Fold increase h-GABA-A α2β2γ1 oocyte @ 30-fold Ki.
- target.of.assay: h-GABA-A α2β2γ1 (Homo sapiens (Human), UniProt P47869+Q8N1C3)
- test.description: Two-electrode voltage clamp electrophysiology in Xenopus oocytes expressing GABAA receptors
- Format: cell-based
- assay.context: Xenopus oocytes, GABA EC20, compound at about 30-fold its Ki α2β2γ1
Reply briefly: the number, and no unit.

Problem: // returns reported Fold increase h-GABA-A α2β2γ1 oocyte @ 30-fold Ki for input `CC(C)c1nnc2n1-c1sc3c(c1C(c1c(F)cccc1F)=N[C@H]2C)COCCO3`
Result: 2.16

Problem: Consider next the compound `Cc1nnc2n1-c1sc3c(c1C(c1c(F)cccc1F)=N[C@H]2C)COC[C@H](C)O3` in the same way.
Result: 2.50

Problem: Consider next the compound Cc1nnc2n1-c1sc3c(c1C(c1c(F)cccc1F)=N[C@H]2C)CCCC[C@@H]3F (single isomer, unassigned) in the same way.
Result: 2.85

Problem: Consider next the compound `Cc1nnc2n1-c1sc3c(c1C(c1c(F)cccc1F)=N[C@H]2C)CC[C@@H](O)CC3` in the same way.
Result: 1.77

###

- target.of.assay: human GABAA α2β2γ1 receptor (Homo sapiens (Human), UniProt P47869+Q8N1C3)
- test.description: Radioligand binding assay, competition for [3H]RO7239181, γ1-containing GABAA subtypes
- assay.context: Ki h-GABAA α2β2γ1, membranes of HEK293F cells, [3H]RO7239181 20-30 nM, Table 2
Quick rule for you: Ki under 30 nM gets fulfilled, anything else gets not fulfilled.

Problem: Determine if Cc1nnc2n1-c1sc3c(c1C(c1c(F)cccc1F)=N[C@H]2C)CC[C@@H](F)CC3 (single isomer, unassigned) [Example 15] shows Ki strictly lower than 30 nM.
Result: not fulfilled

Problem: Consider next the compound Cc1nc2n(n1)-c1sc3c(c1C(c1c(F)cccc1F)=N[C@H]2C)CCCCC3 [Example 20] in the same way.
Result: fulfilled

Problem: Consider next the compound CCNC(=O)c1nc2n(n1)-c1sc3c(c1C(c1c(F)cccc1F)=N[C@H]2C)COCCO3 [Example 37] in the same way.
Result: not fulfilled

Problem: Consider next the compound Cc1nnc2n1-c1sc3c(c1C(c1c(F)cccc1F)=N[C@H]2C)CC[C@@H](O)CC3 [Example 27] in the same way.
Result: not fulfilled

Problem: Consider next the compound Cc1nnc2n1-c1sc3c(c1C(c1c(F)cccc1F)=N[C@H]2C)COC[C@H](C)O3 [Example 30] in the same way.
Result: not fulfilled

Problem: Consider next the compound C[C@@H]1N=C(c2c(F)cccc2F)c2c(sc3c2CCCCC3)-n2c(C3CC3)nnc21 [Example 3] in the same way.
Result: fulfilled

Problem: Consider next the compound C[C@@H]1N=C(c2c(F)cccc2F)c2c(sc3c2CCCCC3)-n2c(-c3cccnn3)nnc21 [Example 4] in the same way.
Result: not fulfilled

Problem: Consider next the compound CCc1nnc2n1-c1sc3c(c1C(c1c(F)cccc1F)=N[C@H]2C)COCCO3 [Example 42] in the same way.
Result: not fulfilled
